system: Candida albicans; experiment: Antimicrobial activity against Candida albicans CAF2-1 after 24 hrs by two fold serial dilution method; type: functional; details: CAF2-1, 24 h
Labelling field: enter Satisfied if recorded MIC is less than 30 µg/mL. Enter Not satisfied if it equals or exceeds that cut-off.

# QUERY_SMILES, LABEL
rows = [
    ("CC[C@H](C)C[C@H](C)CCCCCCCCC(=O)N[C@H]1C[C@@H](O)[C@@H](NCCN)NC(=O)[C@@H]2[C@@H](O)CCN2C(=O)[C@H]([C@H](O)CCN)NC(=O)[C@H]([C@H](O)[C@@H](O)c2ccc(O)cc2)NC(=O)[C@@H]2C[C@@H](O)CN2C(=O)[C@H]([C@@H](C)O)NC1=O", "Satisfied"),
    ("COc1c(C)n(OC)c2c(c1=O)[C@@H](CCCCCc1ccccc1)CCC2", "Not satisfied"),
    ("OC(Cn1cncn1)(Cn1cncn1)c1ccc(F)cc1F", "Satisfied"),
    ("CCCCCCCC[C@H]1CCC(=O)c2[nH]c(C)c(OC)c(=O)c21", "Not satisfied"),
    ("CCCCCCCC[C@@H]1CCCc2c1c(=O)c(OC)c(CO)n2OC", "Not satisfied"),
    ("CCCCCCCC[C@@H]1CCCc2[nH]c(C)c(OC)c(=O)c21", "Satisfied"),
    ("CCCCCCCC[C@@H]1CCCc2[nH]c(CO)c(OC)c(=O)c21", "Not satisfied"),
    ("CCCCCCCC[C@H]1CC[C@@H](OC)c2[nH]c(C)c(OC)c(=O)c21", "Satisfied"),
]

---

test system: Nakaseomyces glabratus; test: Antimicrobial activity against Candida glabrata after 24 hrs by two fold serial dilution method; format: functional

# QUERY_SMILES, CENSOR_SYMBOL, MIC, µg/mL
rows = [
    ("COc1c(C)[nH]c2c(c1=O)[C@@H](CCCCCc1ccccc1)CC[C@H]2OC", ">", 32),
    ("CC[C@H](C)C[C@H](C)CCCCCCCCC(=O)N[C@H]1C[C@@H](O)[C@@H](NCCN)NC(=O)[C@@H]2[C@@H](O)CCN2C(=O)[C@H]([C@H](O)CCN)NC(=O)[C@H]([C@H](O)[C@@H](O)c2ccc(O)cc2)NC(=O)[C@@H]2C[C@@H](O)CN2C(=O)[C@H]([C@@H](C)O)NC1=O", "=", 0.1),
    ("CCCCCCCC[C@H]1CCCc2c1c(=O)c(OC)c(C)n2OC", "=", 32),
]

---

system: Candida parapsilosis; test: Antimicrobial activity against Candida parapsilosis ATCC 22019 after 24 hrs by two fold serial dilution method; format: functional; settings: Lodderomyces parapsilosis, ATCC 22019, 24 h
OBSERVATION_TYPE: MIC (µg/mL)

# COMPOUND, OBSERVATION_TYPE, CENSOR_SYMBOL, MEASURED_RESULT
records = [
    ("CCCCCCCCc1ccc(OC)c2[nH]c(C)c(OC)c(=O)c12", "MIC", ">", 32),
    ("COc1c(C)[nH]c2c(c1=O)[C@@H](CCCCCc1ccccc1)CC[C@H]2OC", "MIC", ">", 32),
    ("CCCCCCCC[C@@H]1CCCc2[nH]c(CO)c(OC)c(=O)c21", "MIC", ">", 32),
    ("COc1c(C)n(OC)c2c(c1=O)[C@@H](CCCCCc1ccccc1)CCC2", "MIC", "=", 2),
    ("OC(Cn1cncn1)(Cn1cncn1)c1ccc(F)cc1F [FLUCONAZOLE]", "MIC", "=", 4),
    ("CCCCCCCC[C@@H]1CCCc2[nH]c(C)c(OC)c(=O)c21", "MIC", "=", 32),
    ("CCCCCCCC[C@H]1CCC(=O)c2[nH]c(C)c(OC)c(=O)c21", "MIC", "=", 4),
    ("CC[C@H](C)C[C@H](C)CCCCCCCCC(=O)N[C@H]1C[C@@H](O)[C@@H](NCCN)NC(=O)[C@@H]2[C@@H](O)CCN2C(=O)[C@H]([C@H](O)CCN)NC(=O)[C@H]([C@H](O)[C@@H](O)c2ccc(O)cc2)NC(=O)[C@@H]2C[C@@H](O)CN2C(=O)[C@H]([C@@H](C)O)NC1=O [CASPOFUNGIN]", "MIC", "=", 1),
    ("CCCCCCCC[C@H]1CC[C@@H](O)c2[nH]c(C)c(OC)c(=O)c21", "MIC", ">", 32),
    ("CCCCCCCC[C@@H]1CCCc2c1c(=O)c(OC)c(CO)n2OC", "MIC", ">", 32),
    ("CCCCCCCC[C@H]1CCCc2c1c(=O)c(OC)c(C)n2OC", "MIC", "=", 2),
    ("CCCCCCCC[C@H]1CC[C@@H](OC)c2[nH]c(C)c(OC)c(=O)c21", "MIC", ">", 32),
]
